Measured on: human CYP2C19 (Homo sapiens, UniProt P33261)
Sequence (P33261 whole entry): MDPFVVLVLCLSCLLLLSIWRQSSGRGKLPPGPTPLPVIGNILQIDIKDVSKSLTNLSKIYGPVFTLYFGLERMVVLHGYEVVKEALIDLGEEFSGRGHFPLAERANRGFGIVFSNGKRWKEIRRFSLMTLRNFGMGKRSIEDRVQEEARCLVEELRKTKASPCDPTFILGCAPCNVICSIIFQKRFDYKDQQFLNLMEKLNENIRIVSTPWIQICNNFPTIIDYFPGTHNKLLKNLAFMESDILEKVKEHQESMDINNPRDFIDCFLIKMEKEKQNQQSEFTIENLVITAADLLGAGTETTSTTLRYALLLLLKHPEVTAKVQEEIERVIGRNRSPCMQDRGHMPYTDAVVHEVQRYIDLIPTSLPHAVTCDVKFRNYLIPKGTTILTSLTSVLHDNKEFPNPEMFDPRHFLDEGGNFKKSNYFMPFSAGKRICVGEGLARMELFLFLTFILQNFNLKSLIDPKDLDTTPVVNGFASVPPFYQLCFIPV
Method summary: biochemical
Experimental parameters: CYP2C19 IC50 (half-maximal inhibitory concentration)
Consider the following compounds and their measured IC50 readings.
Quick reminder: number only, in nM, skip the unit.

{"columns": ["Compound", "Unit label", "Reported value"],
 "data": [
  ["CCCN(CCOc1c(Cl)cc(Cl)cc1Cl)C(=O)n1ccnc1 [Prochloraz]", "nM", 50],
  ["CCOP(=S)(OCC)Oc1ccc([N+](=O)[O-])cc1 [Parathion]", "nM", 170]
]}

Now, please, on to the next compound.
**Q:** Provide IC50 value for the following compound: C=CC(=O)OCC(CO)(COC(=O)C=C)COC(=O)C=C [Pentaerythritol triacrylate]
**A:** 22600
